- test.system: UniProt:O94992
- Sequence (whole entry): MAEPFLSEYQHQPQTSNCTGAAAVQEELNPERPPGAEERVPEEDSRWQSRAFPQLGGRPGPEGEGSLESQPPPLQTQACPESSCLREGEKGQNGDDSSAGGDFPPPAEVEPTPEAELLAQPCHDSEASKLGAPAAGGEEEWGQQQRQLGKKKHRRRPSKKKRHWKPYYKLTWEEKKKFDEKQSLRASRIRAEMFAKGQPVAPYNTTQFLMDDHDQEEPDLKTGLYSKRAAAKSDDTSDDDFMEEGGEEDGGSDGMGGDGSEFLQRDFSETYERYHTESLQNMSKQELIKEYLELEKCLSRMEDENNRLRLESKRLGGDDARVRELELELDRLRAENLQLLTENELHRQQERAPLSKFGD
- assay.name: Induction of HEXIM1 protein expression in human LNCAP cells at 100 uM after 24 hrs by Western blotting analysis relative to control
- Assay type: cell-based
value.type: fold change (FC)
Give only the figure.

Worked examples, 5 compounds total:
CC(=O)N(C)C1CCC(N(C)C(C)=O)CC1 (stereo not drawn) :: 0.43
CN(Cc1ccc(CN(C)S(C)(=O)=O)cc1)S(C)(=O)=O :: 2
CC(=O)NCCCCCCNC(=O)Oc1ccc(-c2ccccc2)cc1 :: 0.61
CC(=O)NC1CCC(NC(C)=O)CC1 (stereo not drawn) :: 0.06
CC(=O)N(C)Cc1ccc(CN(C)C(C)=O)cc1 :: 3.8

Q) Which fold change (FC) value is on record for CCCC(=O)NCCCCCCNC(=O)CCC ?
A) 1.23

Q) So what's the measured fold change (FC) for this one? CN(CC1CCC(CN(C)S(C)(=O)=O)CC1)S(C)(=O)=O (stereo not drawn)
A) 0.41

Q) I would be grateful if you could share the reported fold change (FC) for CN(CCCN(C)S(C)(=O)=O)S(C)(=O)=O .
A) 0.67

Q) Could you share which fold change (FC) value was measured for CS(=O)(=O)NCCCNS(C)(=O)=O ?
A) 0.21

Q) Fill blank: measured fold change (FC) of the compound COc1ccc(CC(=O)NCCCCCCNC(C)=O)cc1 is ____.
A) 1.16

Q) Item CN(C1CCC(N(C)S(C)(=O)=O)CC1)S(C)(=O)=O (stereo not drawn) has what recorded fold change (FC)?
A) 1.22

Q) Entry CCC(=O)NCCCCCCNC(=O)CC : reported fold change (FC) = ?
A) 1.34

Q) Need fold change (FC), item CN(CCCCCCN(C)S(C)(=O)=O)S(C)(=O)=O
A) 1.55
